- SYSTEM_UNDER_TEST: DNA topoisomerase 1 (Homo sapiens) (UniProt P11387)
- Sequence (whole entry): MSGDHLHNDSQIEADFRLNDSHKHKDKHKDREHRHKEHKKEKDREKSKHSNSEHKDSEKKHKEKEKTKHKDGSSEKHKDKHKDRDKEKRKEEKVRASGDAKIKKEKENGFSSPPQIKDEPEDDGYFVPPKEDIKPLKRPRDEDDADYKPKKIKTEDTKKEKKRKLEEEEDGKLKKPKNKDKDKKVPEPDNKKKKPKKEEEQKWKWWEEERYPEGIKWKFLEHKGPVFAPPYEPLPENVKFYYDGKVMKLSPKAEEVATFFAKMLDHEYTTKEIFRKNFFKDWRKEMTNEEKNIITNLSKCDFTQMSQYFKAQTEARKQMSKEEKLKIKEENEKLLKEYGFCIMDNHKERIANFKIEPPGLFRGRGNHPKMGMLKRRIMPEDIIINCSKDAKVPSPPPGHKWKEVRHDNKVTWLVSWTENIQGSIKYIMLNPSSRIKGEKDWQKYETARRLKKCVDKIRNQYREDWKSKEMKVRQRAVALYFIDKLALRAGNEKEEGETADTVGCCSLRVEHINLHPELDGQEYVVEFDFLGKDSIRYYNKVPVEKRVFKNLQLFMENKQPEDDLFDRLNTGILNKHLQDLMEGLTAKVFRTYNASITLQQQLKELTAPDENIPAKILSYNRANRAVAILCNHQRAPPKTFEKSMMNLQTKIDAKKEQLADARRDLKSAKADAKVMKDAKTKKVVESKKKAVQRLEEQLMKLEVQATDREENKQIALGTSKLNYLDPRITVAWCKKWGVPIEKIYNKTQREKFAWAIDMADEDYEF
- ASSAY: Inhibition of topoisomerase 1 (unknown origin) assessed at 100 uM incubated for 15 mins by ethidium bromide staining based agarose gel electrophoresis method

{"MOLECULE": "O=C1c2ccccc2N(c2cccc(F)c2)C2c3[nH]c4ccc(Cl)cc4c3CCN12 (stereo unspecified)", "inhibition [%]": 32.7}
{"MOLECULE": "O=C1c2ccccc2N(c2ccc(F)cc2)C2c3[nH]c4ccccc4c3CCN12 (stereo unspecified)", "inhibition [%]": 40.4}
{"MOLECULE": "Cc1cccc(N2c3ccccc3C(=O)N3CCc4c([nH]c5ccccc45)C32)c1 (stereo unspecified)", "inhibition [%]": 10.5}
{"MOLECULE": "COc1ccc2c(c1)C(=O)N1CCc3c([nH]c4ccccc34)C1N2c1cccc(F)c1 (stereo unspecified)", "inhibition [%]": 16.9}
{"MOLECULE": "O=C1c2ccccc2N(c2cccc(Br)c2)C2c3[nH]c4ccccc4c3CCN12 (stereo unspecified)", "inhibition [%]": 18.8}
{"MOLECULE": "O=C1c2cc(Cl)ccc2N(c2cccc(F)c2)C2c3[nH]c4ccccc4c3CCN12 (stereo unspecified)", "inhibition [%]": 14.2}
{"MOLECULE": "O=C1c2cc(Br)ccc2N(c2cccc(F)c2)C2c3[nH]c4ccccc4c3CCN12 (stereo unspecified)", "inhibition [%]": 9.4}
{"MOLECULE": "Cc1ccc2c(c1)C(=O)N1CCc3c([nH]c4ccc(C)cc34)C1N2c1cccc(F)c1 (stereo unspecified)", "inhibition [%]": 80.8}
{"MOLECULE": "O=C1c2cc(I)ccc2N(c2cccc(F)c2)C2c3[nH]c4ccccc4c3CCN12 (stereo unspecified)", "inhibition [%]": 17.7}
{"MOLECULE": "Cc1ccc2c(c1)C(=O)N1CCc3c([nH]c4ccccc34)C1N2c1cccc(F)c1 (stereo unspecified)", "inhibition [%]": 65.8}
{"MOLECULE": "O=C1c2ccccc2N(c2ccccc2F)C2c3[nH]c4ccccc4c3CCN12 (stereo unspecified)", "inhibition [%]": 15}

* * *

- System: GES1
- ASSAY: Antiproliferative activity against human GES1 cells assessed as reduction in cell viability measured after 72 hrs by MTT assay
- Assay type: functional, cell-based
- CONDITION_CONTEXT: GES1, 72 h
# note: exactly 6 µM is not below, so it is rule not met; use rule met for IC50 strictly under it

{"COMPOUND": "COc1ccc2c(c1)C(=O)N1CCc3c([nH]c4ccccc34)C1N2c1cccc(F)c1 (configuration not stated)", "CLASSIFICATION": "rule not met"}
{"COMPOUND": "Cc1ccc2c(c1)C(=O)N1CCc3c([nH]c4ccc(Cl)cc34)C1N2c1cccc(F)c1 (configuration not stated)", "CLASSIFICATION": "rule met"}
{"COMPOUND": "O=C1c2ccccc2N(c2cccc(Cl)c2)C2c3[nH]c4ccccc4c3CCN12 (configuration not stated)", "CLASSIFICATION": "rule met"}
{"COMPOUND": "Cc1cccc2c1C(=O)N1CCc3c([nH]c4ccccc34)C1N2c1cccc(F)c1 (configuration not stated)", "CLASSIFICATION": "rule not met"}
{"COMPOUND": "O=C1c2cc(Cl)ccc2N(c2cccc(F)c2)C2c3[nH]c4ccccc4c3CCN12 (configuration not stated)", "CLASSIFICATION": "rule not met"}
{"COMPOUND": "Cc1cccc(N2c3ccccc3C(=O)N3CCc4c([nH]c5ccccc45)C32)c1 (configuration not stated)", "CLASSIFICATION": "rule not met"}
{"COMPOUND": "COc1ccc2[nH]c3c(c2c1)CCN1C(=O)c2ccccc2N(c2cccc(F)c2)C31 (configuration not stated)", "CLASSIFICATION": "rule met"}
{"COMPOUND": "O=C1c2ccccc2N(c2cccc(Br)c2)C2c3[nH]c4ccccc4c3CCN12 (configuration not stated)", "CLASSIFICATION": "rule met"}
{"COMPOUND": "Cc1ccc2c(c1)N(c1cccc(F)c1)C1c3[nH]c4ccccc4c3CCN1C2=O (configuration not stated)", "CLASSIFICATION": "rule not met"}
{"COMPOUND": "O=C1c2ccccc2N(c2cccc(C(F)(F)F)c2)C2c3[nH]c4ccccc4c3CCN12 (configuration not stated)", "CLASSIFICATION": "rule not met"}
{"COMPOUND": "Cc1ccc2c(c1)C(=O)N1CCc3c([nH]c4ccccc34)C1N2c1cccc(F)c1 (configuration not stated)", "CLASSIFICATION": "rule not met"}
{"COMPOUND": "O=C1c2ccccc2N(c2cccc(F)c2)C2c3[nH]c4ccc(Cl)cc4c3CCN12 (configuration not stated)", "CLASSIFICATION": "rule met"}
{"COMPOUND": "O=C1c2ccccc2N(c2ccccc2)C2c3[nH]c4ccccc4c3CCN12 (configuration not stated)", "CLASSIFICATION": "rule not met"}
{"COMPOUND": "O=C1c2cc(Br)ccc2N(c2cccc(F)c2)C2c3[nH]c4ccccc4c3CCN12 (configuration not stated)", "CLASSIFICATION": "rule not met"}
{"COMPOUND": "COc1ccc2[nH]c3c(c2c1)CCN1C(=O)c2cc(C)ccc2N(c2cccc(F)c2)C31 (configuration not stated)", "CLASSIFICATION": "rule not met"}
{"COMPOUND": "O=C1c2cc(I)ccc2N(c2cccc(F)c2)C2c3[nH]c4ccccc4c3CCN12 (configuration not stated)", "CLASSIFICATION": "rule not met"}

These measurements were taken from ChEMBL document CHEMBL5046227.
